# Tested on: B. subtilis 168;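 further: OD595 on entry to stationary phase over no-drug wells; at most 1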
# Test summary: fitness (endpoint OD595 vs no drug) (fraction); higher = more growth
# Applied conditions: first compound 0.625 µg/mL; partner 2 µg/mL
Assay metric: fitness

Consider the reported fitness for these compounds:
compound="COc1cccc2c1C(=O)c1c(O)c3c(c(O)c1C2=O)C[C@@](O)(C(=O)CO)C[C@@H]3O[C@H]1C[C@H](N)[C@H](O)[C@H](C)O1 [Doxorubicin] + Cc1cc(NS(=O)(=O)c2ccc(N)cc2)no1 [Sulfamethoxazol]" experimental_result=0.878
compound="COc1cccc2c1C(=O)c1c(O)c3c(c(O)c1C2=O)C[C@@](O)(C(=O)CO)C[C@@H]3O[C@H]1C[C@H](N)[C@H](O)[C@H](C)O1 [Doxorubicin] + COc1c(N2C[C@@H]3CCCN[C@@H]3C2)c(F)cc2c(=O)c(C(=O)O)cn(C3CC3)c12 [Moxifloxacin]" experimental_result=0.0338
compound="COc1cccc2c1C(=O)c1c(O)c3c(c(O)c1C2=O)C[C@@](O)(C(=O)CO)C[C@@H]3O[C@H]1C[C@H](N)[C@H](O)[C@H](C)O1 [Doxorubicin] + CN[C@@H]1[C@H](O[C@H]2[C@H](O[C@H]3[C@H](O)[C@@H](O)[C@H](N=C(N)N)[C@@H](O)[C@@H]3N=C(N)N)O[C@@H](C)[C@]2(O)C=O)O[C@@H](CO)[C@H](O)[C@H]1O [Streptomycin]" experimental_result=0.869

Field: next compound
Tell me its fitness given Cc1ncc([N+](=O)[O-])n1CCO [Metronidazole] + CN[C@@H]1[C@H](O)[C@H](NC)[C@H]2O[C@@]3(O)C(=O)C[C@@H](C)O[C@H]3O[C@@H]2[C@H]1O as the entry.
0.947

Just for reference, the supplement of paper PMC10627819 is where these values come from.
